# Tested on: Soya beans
# Test Description: Pre-emergence test/Greenhouse, Soya beans
# Assay type: in vivo
# Measurement Setup: in vivo
Observable: degree of damage to the plants (% damage vs untreated control), Soya beans

[
  {
    "Structure As Smiles": "COC(=O)c1cccc(C)c1S(=O)(=O)NC(=O)n1nc(OCC(F)(F)F)n(C2CC2)c1=O",
    "Result": "10%"
  },
  {
    "Structure As Smiles": "CCn1c(OC)nn(C(=O)NS(=O)(=O)c2c(C)csc2C(=O)OC)c1=O",
    "Result": "10%"
  },
  {
    "Structure As Smiles": "CCCOC(=O)c1cccc(C)c1S(=O)(=O)NC(=O)n1nc(OCCC)n(C)c1=O",
    "Result": "10%"
  },
  {
    "Structure As Smiles": "COC(=O)c1cccc(C)c1S(=O)(=O)NC(=O)n1nc(SC)n(OC)c1=O",
    "Result": "10%"
  },
  {
    "Structure As Smiles": "CCCOc1nn(C(=O)NS(=O)(=O)c2c(C)cccc2C(=O)OC)c(=O)n1C",
    "Result": "10%"
  },
  {
    "Structure As Smiles": "COC(=O)c1cccc(C)c1S(=O)(=O)NC(=O)n1nc(SCC(F)(F)F)n(C)c1=O",
    "Result": "10%"
  }
]

Values were extracted from patent US6441195B1.
